assay: protein stability index of a GFP-peptide fusion (yeast GPS) (PSI 1-4); higher = more stable; sorted into four equal gates, so the index is relative within each strain; conditions: san1∆
PARAMETER MEASURED: protein stability index
Numbers only.

// worked examples, protein stability index included
# ITEM SEQUENCE, QUANTITATIVE READOUT
rows = [
    ("FLKERLMEASDAFRVHI [RPB2]", 2),
    ("NLQIRQLFNWCLMRSLH [DSN1]", 1.04),
    ("HTSPHQPSDVKPTSHKQ [SIR4]", 2.9),
    ("GNLSKREIQIDAVLKIF [SRB8]", 2.99),
]

Batch request: protein stability index for each of the following sequences.
1. MVMFMHMAKGLYYGSYR [COB]
2. ELGTAVGKLFRVGVVSI [RPL30]
3. PIPIPAFADRLGQYVQA [PRE10]

Response:
1. 1.75
2. 1.27
3. 1.75

Batch request: protein stability index for each of the following sequences.
1. DILLNERVWNICLYSSF [AAR2]
2. ILDINVSSSKNKKSEEN [SWP82]

Response:
[1.55, 3.27]

Batch request: protein stability index for each of the following sequences.
1. TETLTSKKIVPSPKKVA [SIR4]
2. SASHILIPASDLSWSKQ [PRP8]
3. EVTEEQAEATEWAEENA [RPS0A]
4. NDVTNKNINIGKHSQEQ [SIR4]
5. EKKAASAKQTAPNNSNG [MED7]
6. KNNSSIRNVIMSASNAN [SRB8]
7. ERPPYILNSYGVLKPDI [SIR2]
8. AEVNGGDDEATEIISTL [BRR2]

Response:
2.63
1.53
2.99
2.81
2.95
1.88
3.15
3.43

----------
assay: protein stability index of a GFP-peptide fusion (yeast GPS) (PSI 1-4); higher = more stable; sorted into four equal gates, so the index is relative within each strain; details: doa10∆
PARAMETER MEASURED: protein stability index
One number for each entry.

// worked examples, protein stability index included
# ITEM SEQUENCE, QUANTITATIVE READOUT
rows = [
    ("ATASAIAATAVASLVLA [RPL4A]", 2.37),
    ("PEETPLEELAETFQDTF [FAS2]", 3.11),
    ("IGVETGSEPLIQQVVEY [PRP28]", 2.99),
]

Batch request: protein stability index for each of the following sequences.
1. PHLFVNGDLTVSLCAKN [SSN2]
2. TRSHEYGRKSFRNNKND [REC8]
3. NQMGMGTNNGMSMGGGV [YOR098C/NUP1]

Response:
1: 1.95; 2: 3.2; 3: 3.39

Batch request: protein stability index for each of the following sequences.
1. KRVDFSGRTVISPDPNL [RPO31]
2. LFHSCTRIQYVDFACCT [GRR1]

Response:
1. 2.44
2. 2.56

----------
test: protein stability index of a GFP-peptide fusion (yeast GPS) (PSI 1-4); higher = more stable; sorted into four equal gates, so the index is relative within each strain; details: ubr1∆
Outcome: 1 (yes) for protein stability index of at least 3; 0 (no) for anything lower.

# ITEM SEQUENCE, ASSIGNED CATEGORY
data = [
    ("VYTLACRSCPYEFPIEG [RPC11]", "0 (no)"),
    ("ALRALQENGTIFRGSLI [YDL088C/ASM4]", "0 (no)"),
    ("EKGLNELSIRDVTHTLG [SMC4]", "0 (no)"),
    ("VFKLSTNLISKISLLRP [SWP82]", "0 (no)"),
    ("EESISKFPDMGSLWVEF [RPB5]", "0 (no)"),
    ("PQRLQRKRHQRALKVRN [RPS6A]", "0 (no)"),
    ("INTLNGGSSDTADKIRI [GAL11]", "0 (no)"),
    ("LVDNLNAEVVAGNIKCR [BRR2]", "0 (no)"),
]

Prompt: Has TKYERARILGTRALQIS [RPO26] a recorded protein stability index greater than or equal to 3?
Response: 0 (no)

Prompt: Has QINNVHLIPNEIKGASE [RPN4] a recorded protein stability index greater than or equal to 3?
Response: 0 (no)

Prompt: Has LGWIHTQTEELKFMAAS [PRP8] a recorded protein stability index greater than or equal to 3?
Response: 0 (no)

Prompt: Has PIIATYGNRAEQFLETD [SRP68] a recorded protein stability index greater than or equal to 3?
Response: 0 (no)

Prompt: Has ADLRPLQIKSIREIDVT [RPS7B] a recorded protein stability index greater than or equal to 3?
Response: 0 (no)
